# System Tested: Human DGAT2 (hDGAT2) (Homo sapiens (Human), UniProt Q96PD7)
# Sequence (Q96PD7 whole entry): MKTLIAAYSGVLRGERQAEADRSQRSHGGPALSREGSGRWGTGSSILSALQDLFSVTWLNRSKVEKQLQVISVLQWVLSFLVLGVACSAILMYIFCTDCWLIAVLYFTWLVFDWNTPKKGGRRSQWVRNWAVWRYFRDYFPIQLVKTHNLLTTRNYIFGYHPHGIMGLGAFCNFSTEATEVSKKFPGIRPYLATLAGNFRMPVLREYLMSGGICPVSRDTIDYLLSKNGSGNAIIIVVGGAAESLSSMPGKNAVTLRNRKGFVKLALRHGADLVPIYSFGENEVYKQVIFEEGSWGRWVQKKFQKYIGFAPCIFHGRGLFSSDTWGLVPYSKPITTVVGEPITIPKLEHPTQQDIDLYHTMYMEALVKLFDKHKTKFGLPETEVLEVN
# Experiment: In vitro DGAT2 assay, IC50 determination with hDGAT2 membrane fraction
# Type: biochemical
# Run Conditions: geometric mean; background for complete inhibition of DGAT2 obtained with Example 196-A instead of the cyclopentanecarboxylic acid reference; read-out: DGAT2 IC50 (nM), values in the parentheses
Metric Name: log10 IC50 (log10 of the value in nM)
// stored as log10 of IC50 expressed in nM

Here is how some compounds turned out for log10 IC50.
[[record]]
smiles_entry = "C[C@@H](c1nc2ccc(N3CCC[C@@H](C(=O)N4CCCC4)C3)nc2[nH]1)n1cc(Cl)cn1"
system_tested = "Human DGAT2 (hDGAT2) (Homo sapiens (Human), UniProt Q96PD7)"
metric_name = "log10 IC50"
reported_measurement = 1.31

[[record]]
smiles_entry = "O=C([C@@H]1CCCN(c2ccc3nc(C4(n5cc(F)cn5)CC4)[nH]c3n2)C1)N1CCCC1"
system_tested = "Human DGAT2 (hDGAT2) (Homo sapiens (Human), UniProt Q96PD7)"
metric_name = "log10 IC50"
reported_measurement = 1.93


We now examine a further compound.
stdin: For O=C([C@H]1CN(c2ccc3nc(C4(n5cc(Cl)cn5)CC4)[nH]c3n2)CCO1)N1CCCC1 , what is its reported log10 IC50?
stdout: 2.48

* * *

Overview of recorded log10 IC50 for various compounds
# System Tested: UniProt:Q96PD7
# Experiment: IC50 determination for DGAT2 inhibitors in human hepatocytes ([1,3-14C]-glycerol incorporation into lipids)
# Format: cell-based
# Run Conditions: average IC50; cryopreserved human hepatocytes, selective DGAT1 inhibitor (3 μM) in all wells, 3 hour incubation with [1,3-14C]-glycerol; read-out: IC50 (nM) in primary human hepatocyte
// stored as log10 of IC50 expressed in nM

[[record]]
compound = "O=C([C@@H]1CCCN(c2ccc3nc(C4(n5cc(F)cn5)CC4)[nH]c3n2)C1)N1CCCC1 [Example 73]"
metric_name = "log10 IC50"
reported_measurement = 0.90


stdin: For N#Cc1cnn(C2(c3nc4ccc(N5CCC[C@@H](C(=O)N6CCCC6)C5)nc4[nH]3)CC2)c1 [Example 76] , what is its reported log10 IC50?
stdout: 1.40

* * *

# System Tested: Human DGAT2 (hDGAT2) (Homo sapiens (Human), UniProt Q96PD7)
# Experiment: In vitro DGAT2 assay, IC50 determination with hDGAT2 membrane fraction
# Assay type: biochemical
# Run Conditions: geometric mean; background for complete inhibition of DGAT2 obtained with 50 μM (1R,2R)-2-({3′-Fluoro-4′-[(6-fluoro-1,3-benzothiazol-2-yl)amino]-1,1′-biphenyl-4-yl}carbonyl)cyclopentanecarboxylic acid; read-out: DGAT2 IC50
Overview of recorded pIC50 for various compounds
// field semantics: pIC50 = negative decimal log of concentration (mol/L)

Here is how some compounds turned out for pIC50.
[[record]]
compound = "Cc1cccc(-c2nc3ccc(N4CCC[C@@H](C(=O)N5CCCC5)C4)nc3[nH]2)n1 [Example 44]"
system_tested = "Human DGAT2 (hDGAT2) (Homo sapiens (Human), UniProt Q96PD7)"
reported_measurement = 7.44

[[record]]
compound = "O=C([C@@H]1CCCN(c2ncc3nc(C4(n5cc(F)cn5)CC4)[nH]c3n2)C1)N1CCCC1 [Example 209]"
system_tested = "Human DGAT2 (hDGAT2) (Homo sapiens (Human), UniProt Q96PD7)"
reported_measurement = 7.00

[[record]]
compound = "CC(C)(C)c1nc2ccc(N3CCC[C@@H](C(=O)N4CCCC4)C3)nc2[nH]1 [Example 24]"
system_tested = "Human DGAT2 (hDGAT2) (Homo sapiens (Human), UniProt Q96PD7)"
reported_measurement = 6.14

[[record]]
compound = "O=C1COc2ccc(-c3nc4ccc(N5CCC[C@@H](C(=O)N6CCCC6)C5)nc4[nH]3)cc2N1 [Example 27]"
system_tested = "Human DGAT2 (hDGAT2) (Homo sapiens (Human), UniProt Q96PD7)"
reported_measurement = 5.86

[[record]]
compound = "O=C([C@@H]1CCCN(c2ncc3nc(-c4ccnc(C5CC5)n4)[nH]c3n2)C1)N1CCCC1 [Example 159]"
system_tested = "Human DGAT2 (hDGAT2) (Homo sapiens (Human), UniProt Q96PD7)"
reported_measurement = 7.55

[[record]]
compound = "Cc1cc(C2(c3nc4ccc(N5CCC[C@@H](C(=O)N6CCCC6)C5)nc4[nH]3)CC2)on1 [Example 86]"
system_tested = "Human DGAT2 (hDGAT2) (Homo sapiens (Human), UniProt Q96PD7)"
reported_measurement = 6.54

[[record]]
compound = "Cn1nccc1C1(c2nc3ccc(N4CCC[C@@H](C(=O)N5CCCC5)C4)nc3[nH]2)CC1 [Example 104]"
system_tested = "Human DGAT2 (hDGAT2) (Homo sapiens (Human), UniProt Q96PD7)"
reported_measurement = 6.72

[[record]]
compound = "CCOC(=O)CCc1cccc(-c2nc3ccc(N4CCC[C@@H](C(=O)N5CCCC5)C4)nc3[nH]2)c1 [Example 128]"
system_tested = "Human DGAT2 (hDGAT2) (Homo sapiens (Human), UniProt Q96PD7)"
reported_measurement = 8.15

[[record]]
compound = "O=C([C@@H]1CCCN(c2ccc3nc(C4(c5ccccc5)CC4)[nH]c3n2)C1)N1CCCC1 [Example 51]"
system_tested = "Human DGAT2 (hDGAT2) (Homo sapiens (Human), UniProt Q96PD7)"
reported_measurement = 7.16

[[record]]
compound = "COc1cnn(C2(c3nc4ccc(N5CCC[C@@H](C(=O)N6CCCC6)C5)nc4[nH]3)CC2)c1 [Example 194]"
system_tested = "Human DGAT2 (hDGAT2) (Homo sapiens (Human), UniProt Q96PD7)"
reported_measurement = 7.00


stdin: For C[C@H]1CC[C@@H](C(=O)N2CCCC2)CN1c1ccc2nc(C3(n4cc(Cl)cn4)CC3)[nH]c2n1 [Example 216] , what is its reported pIC50?
stdout: 5.04

stdin: For O=C([C@@H]1CCCN(c2ccc3nc(-c4ccnc(N5CCOCC5)n4)[nH]c3n2)C1)N1CCCC1 [Example 25] , what is its reported pIC50?
stdout: 6.53

stdin: For O=C([C@@H]1CCCN(c2ccc3nc(-c4cccc(F)c4)[nH]c3n2)C1)N1CCCC1 [Example 35] , what is its reported pIC50?
stdout: 7.67

stdin: For O=C([C@@H]1CCCN(c2ccc3nc(-c4ccnc(C5CC5)n4)[nH]c3n2)C1)N1CCC(F)(F)C1 [Example 131] , what is its reported pIC50?
stdout: 7.46

stdin: For CC(C)COC(=O)N1CCCC(c2nc3ccc(N4CCC[C@@H](C(=O)N5CCCC5)C4)nc3[nH]2)C1 (stereo in doubt) [Example 61] , what is its reported pIC50?
stdout: 7.06

stdin: For C[C@@H](c1nc2ccc(N3CCC[C@@H](C(=O)N4CCCC4)C3)nc2[nH]1)n1cc(Cl)cn1 [Example 196-A] , what is its reported pIC50?
stdout: 7.84

stdin: For O=C([C@H]1CN(c2ccc3nc(-c4cccc(C5CC5)n4)[nH]c3n2)CCO1)N1CCCC1 [Example 142] , what is its reported pIC50?
stdout: 7.61

stdin: For O=C([C@@H]1CCCN(c2ccc3nc(-c4ccc(OC(F)(F)F)cc4)[nH]c3n2)C1)N1CCCC1 [Example 34] , what is its reported pIC50?
stdout: 7.61

stdin: For CCc1cc(-c2nc3ccc(N4CCC[C@@H](C(=O)N5CCCC5)C4)nc3[nH]2)no1 [Example 32] , what is its reported pIC50?
stdout: 6.62

stdin: For CC(C)(C)c1csc(-c2nc3ccc(N4CCC[C@@H](C(=O)N5CCCC5)C4)nc3[nH]2)n1 [Example 42] , what is its reported pIC50?
stdout: 8.50

stdin: For O=C([C@@H]1CCCN(c2ccc3nc(-c4ccnc(C5CC5)n4)[nH]c3n2)C1)N1CC[C@H](O)C1 [Example 132] , what is its reported pIC50?
stdout: 6.16

stdin: For O=C([C@@H]1CCCN(c2ccc3nc(C4(n5cc(Cl)cn5)CC4)[nH]c3n2)C1)N1CCOCC1 [Example 206] , what is its reported pIC50?
stdout: 6.61

stdin: For O=C([C@@H]1CCCN(c2ccc3nc(-c4nc(C5CC5)cs4)[nH]c3n2)C1)N1CCCC1 [Example 84] , what is its reported pIC50?
stdout: 8.02
